Reported max % larvae values are given for each entry in this list.
test system: Danio rerio embryo/larva; test: max % larvae with blood pooling across tested concentrations; higher = more toxic; extreme values may be limits of the assay; settings: exposure: 6-8 hpf to 5 dpf, scored at 6 dpf
Give just the number in %; leave the unit off.

The examples below pair each entry with its known result.
Incoming: Query for Danio rerio embryo/larva: what max % larvae does the record show for O=C(O)CCC(F)(F)C(F)(F)C(F)(F)C(F)(F)C(F)(F)C(F)(F)F [3-(Perfluorohexyl)propanoic acid] (max tested concentration (log10 uM): 1) ?
Outgoing: 0

Incoming: And CO[Si](C)(CCC(F)(F)C(F)(F)C(F)(F)C(F)(F)C(F)(F)C(F)(F)F)OC [Dimethoxymethyl((perfluorohexyl)ethyl)silane] (max tested concentration (log10 uM): 1.60206) ?
Outgoing: 0

Incoming: And FC(F)(F)C(F)(F)CNCC(F)(F)C(F)(F)F [Bis(1H,1H-perfluoropropyl)amine] (max tested concentration (log10 uM): 2) ?
Outgoing: 0

Incoming: And C=CC(=O)OCC(F)(F)C(F)(F)C(F)(F)C(F)(F)COC(=O)C=C [1H,1H,6H,6H-Perfluorohexane-1,6-diol diacrylate] (max tested concentration (log10 uM): 1) ?
Outgoing: 0

Incoming: And O=S(=O)(O)C(F)(F)C(F)(F)C(F)(F)C(F)(F)F [Potassium perfluorobutanesulfonate] (max tested concentration (log10 uM): 2) ?
Outgoing: 0

Further cases:
Incoming: Query for Danio rerio embryo/larva: what max % larvae does the record show for C=CC(=O)OCC(F)(F)C(F)(F)C(F)(F)C(F)(F)C(F)(F)C(F)(F)C(F)(F)F [1H,1H-Perfluorooctyl acrylate] (max tested concentration (log10 uM): 2) ?
Outgoing: 0

Incoming: And O=C(O)C(F)(F)C(F)(F)C(F)(F)C(F)(F)C(F)(F)C(F)(F)C(F)(F)C(F)(F)C(F)(F)C(F)(F)C(F)(F)C(F)(F)F [Perfluorotridecanoic acid] (max tested concentration (log10 uM): 1.30103) ?
Outgoing: 16.7

Incoming: And C=C(C)C(=O)OCC(F)(F)C(F)(F)C(F)(F)C(F)(F)C(F)(F)C(F)(F)C(F)(F)F [(Perfluoroheptyl)methyl methacrylate] (max tested concentration (log10 uM): 1.60206) ?
Outgoing: 0

Incoming: And O=S(=O)(O)CCC(F)(F)C(F)(F)C(F)(F)C(F)(F)C(F)(F)C(F)(F)F [6:2 Fluorotelomer sulfonic acid] (max tested concentration (log10 uM): 2) ?
Outgoing: 0

Incoming: And C=CC(=O)OCC(F)(F)C(F)(F)C(F)(F)C(F)(F)C(F)(F)C(F)(F)C(F)(F)C(F)F [1H,1H,9H-Perfluorononyl acrylate] (max tested concentration (log10 uM): 2) ?
Outgoing: 0

###

system: Danio rerio embryo/larva; assay: max % larvae with any abnormality across tested concentrations; max tested concentration (log10 uM): 2; higher = more toxic; extreme values may be limits of the assay; conditions: exposure: 6-8 hpf to 5 dpf, scored at 6 dpf
endpoint.label: max % larvae (%)
Give just the number in %; leave the unit off.

Incoming: Item O=S(=O)(O)C(F)(F)C(F)(F)C(F)(F)C(F)(F)C(F)(F)C(F)(F)F [Perfluorohexanesulfonic acid] has what recorded max % larvae?
Outgoing: 100

Incoming: And O=C(O)C(F)(F)OC(F)(F)C(F)(F)OC(F)(F)C(F)(F)OC(F)(F)F ?
Outgoing: 100

Incoming: And O=S(=O)(O)CCC(F)(F)C(F)(F)C(F)(F)C(F)(F)F ?
Outgoing: 0

Continue with the next compound.
Incoming: Item NC(=O)C(F)(F)C(F)(F)C(F)(F)C(F)F [Perfluoropentanamide] has what recorded max % larvae?
Outgoing: 0

###

Reported BMC swim bladder non-inflation values are given for each entry in this list.
tested on: Danio rerio embryo/larva; assay: BMC swim bladder non-inflation; higher = less potent; settings: max tested concentration (log10 uM): 2; exposure: 6-8 hpf to 5 dpf, scored at 6 dpf
Give just the number in µM; leave the unit off.

The examples below pair each entry with its known result.
Incoming: Item O=S(=O)(O)C(F)(F)C(F)(F)C(F)(F)C(F)(F)C(F)(F)C(F)(F)F [Perfluorohexanesulfonic acid] has what recorded BMC swim bladder non-inflation?
Outgoing: 34.1

Incoming: And OCC(F)(F)C(F)(F)C(F)(F)C(F)(F)C(F)(F)C(F)(F)CO [1H,1H,8H,8H-Perfluorooctane-1,8-diol] ?
Outgoing: 10.4

Incoming: And Cc1ccc(S(=O)(=O)OCC(F)(F)C(F)(F)C(F)(F)C(F)(F)C(F)(F)C(F)F)cc1 [1H,1H,7H-Perfluoroheptyl 4-methylbenzenesulfonate] ?
Outgoing: 8.97

Incoming: And FC(F)(F)C(F)(F)C(F)(F)C(F)(F)C(F)(F)C(F)(F)C(F)(F)I [1-Iodopentadecafluoroheptane] ?
Outgoing: 56.7

Continue with the next compound.
Incoming: Item CNS(=O)(=O)C(F)(F)C(F)(F)C(F)(F)C(F)(F)C(F)(F)C(F)(F)C(F)(F)C(F)(F)F [N-Methylperfluorooctanesulfonamide] has what recorded BMC swim bladder non-inflation?
Outgoing: 0.439

###

tested on: Danio rerio embryo/larva; test: BMC any abnormality; max tested concentration (log10 uM): 2; higher = less potent; conditions: exposure: 6-8 hpf to 5 dpf, scored at 6 dpf
endpoint.label: BMC any abnormality (µM)
Give just the number in µM; leave the unit off.

The examples below pair each entry with its known result.
Incoming: Item O=S(=O)(O)C(F)(F)C(F)(F)C(F)(F)C(F)(F)C(F)(F)C(F)(F)F [Perfluorohexanesulfonic acid] has what recorded BMC any abnormality?
Outgoing: 30.2

Incoming: And FC(F)(F)C(F)(F)C(F)(F)C(F)(F)C(F)(F)CCI ?
Outgoing: 29.3

Incoming: And C=CC(=O)OCCC(F)(F)C(F)(F)C(F)(F)C(F)(F)F [2-(Perfluorobutyl)ethyl acrylate] ?
Outgoing: 26.3

Continue with the next compound.
Incoming: Item O=C(CC(=O)C(F)(F)C(F)(F)C(F)(F)F)c1cccs1 has what recorded BMC any abnormality?
Outgoing: 3.11

###

test system: Danio rerio embryo/larva; experiment: max % larvae with any abnormality across tested concentrations; max tested concentration (log10 uM): 2; higher = more toxic; extreme values may be limits of the assay; conditions: exposure: 6-8 hpf to 5 dpf, scored at 6 dpf
Parameter threshold = 20%. Response is True when max % larvae meets or exceeds it, else False.

Incoming: Threshold query (max % larvae >= 20%) on OCC(F)(F)C(F)(F)C(F)(F)C(F)(F)C(F)(F)C(F)F
Outgoing: False

Incoming: And O=P(O)(O)CCC(F)(F)C(F)(F)C(F)(F)C(F)(F)C(F)(F)C(F)(F)F ?
Outgoing: True

Incoming: And O=C(O)C(F)(F)C(F)(F)C(=O)O ?
Outgoing: False

Incoming: And O=C(O)C(F)(F)OC(F)(F)C(F)(F)OC(F)(F)C(F)(F)OC(F)(F)C(F)(F)C(F)(F)C(F)(F)F ?
Outgoing: True

Incoming: And NC(=O)C(F)(F)C(F)(F)F [Pentafluoropropionamide] ?
Outgoing: False

Further cases:
Incoming: Threshold query (max % larvae >= 20%) on OCCCC(F)(F)C(F)(F)C(F)(F)C(F)(F)C(F)(F)C(F)(F)C(F)(F)C(F)(F)F
Outgoing: False

Incoming: And C=CC(=O)OCC(F)(F)C(F)(F)C(F)(F)COC(=O)C=C [1H,1H,5H,5H-Perfluoro-1,5-pentanediol diacrylate] ?
Outgoing: True

###

tested on: Danio rerio embryo/larva; experiment: BMC any abnormality; max tested concentration (log10 uM): 2; higher = less potent; settings: exposure: 6-8 hpf to 5 dpf, scored at 6 dpf
Reported BMC any abnormality values are given for each entry in this list.
Give just the number in µM; leave the unit off.

The examples below pair each entry with its known result.
Incoming: Item OCCC(F)(F)C(F)(F)C(F)(F)C(F)(F)C(F)(F)C(F)(F)F has what recorded BMC any abnormality?
Outgoing: 10.4

Incoming: And NS(=O)(=O)C(F)(F)C(F)(F)C(F)(F)C(F)(F)C(F)(F)C(F)(F)C(F)(F)C(F)(F)F [Perfluorooctanesulfonamide] ?
Outgoing: 0.261

Incoming: And O=S(=O)(Cl)C(F)(F)C(F)(F)C(F)(F)C(F)(F)C(F)(F)C(F)(F)C(F)(F)C(F)(F)F [Perfluoro-1-octanesulfonyl chloride] ?
Outgoing: 10.4

Further cases:
Incoming: Item O=C(Cl)C(F)(F)C(F)(F)C(F)(F)C(F)(F)C(F)(F)C(F)(F)C(F)(F)C(F)(F)F [Perfluorononanoyl chloride] has what recorded BMC any abnormality?
Outgoing: 25

Incoming: And Cc1ccc(S(=O)(=O)OCC(F)(F)C(F)(F)C(F)(F)C(F)(F)C(F)(F)C(F)F)cc1 [1H,1H,7H-Perfluoroheptyl 4-methylbenzenesulfonate] ?
Outgoing: 20.3

###

system: Danio rerio embryo/larva; assay: BMC swim bladder non-inflation; higher = less potent; conditions: max tested concentration (log10 uM): 2; exposure: 6-8 hpf to 5 dpf, scored at 6 dpf
endpoint.label: BMC swim bladder non-inflation (µM)
Give just the number in µM; leave the unit off.

The examples below pair each entry with its known result.
Incoming: Item CC(C)(C)C(=O)CC(=O)C(F)(F)C(F)(F)C(F)(F)F [(Heptafluorobutanoyl)pivaloylmethane] has what recorded BMC swim bladder non-inflation?
Outgoing: 23

Incoming: And O=P(O)(O)CCC(F)(F)C(F)(F)C(F)(F)C(F)(F)C(F)(F)C(F)(F)C(F)(F)C(F)(F)F [((Perfluorooctyl)ethyl)phosphonic acid] ?
Outgoing: 0.92

Incoming: And OCCCC(F)(F)C(F)(F)C(F)(F)C(F)(F)C(F)(F)C(F)(F)C(F)(F)F [7:3 Fluorotelomer alcohol] ?
Outgoing: 99

Incoming: And OCCC(F)(F)C(F)(F)C(F)(F)C(F)(F)C(F)(F)C(F)(F)F [2-(Perfluorohexyl)ethanol] ?
Outgoing: 26.2

Further cases:
Incoming: Item FC(F)C(F)(F)COCC1CO1 (configuration not stated) [((2,2,3,3-Tetrafluoropropoxy)methyl)oxirane] has what recorded BMC swim bladder non-inflation?
Outgoing: 27.7

Incoming: And O=S(=O)(OCC(F)(F)F)C(F)(F)C(F)(F)C(F)(F)C(F)(F)F [2,2,2-Trifluoroethyl perfluorobutanesulfonate] ?
Outgoing: 77

Incoming: And OCCCCC(F)(F)C(F)(F)C(F)(F)C(F)(F)F [4:4 Fluorotelomer alcohol] ?
Outgoing: 27.1
